- ASSAY METHOD TEXT: in vitro
- TEST PARAMETERS: mouse, plasma
Parameter: half-life. Scope: all listed entries.
EXPERIMENTAL READOUT: half-life (min)

MOLECULE	MEASUREMENT
CC1(C)[C@@H]2[C@@H](C(=O)N[C@@H](C[C@@H]3CCNC3=O)C(=O)C(N)=O)N(C(=O)CCc3ccccc3)C[C@@H]21 [ML102]	18
CC1(C)[C@@H]2[C@@H](C(=O)NC(C[C@@H]3CCNC3=O)C(=O)C(N)=O)N(C(=O)CNc3c(F)cc(F)cc3F)C[C@@H]21 (stereo partly shown) [ML104]	100
CNC(=O)C(=O)[C@H](C[C@@H]1CCNC1=O)NC(=O)[C@@H]1[C@@H]2[C@H](CN1C(=O)CCc1ccccc1)C2(C)C [ML102m]	45
CNC(=O)C(=O)[C@H](C[C@@H]1CCNC1=O)NC(=O)[C@@H]1[C@@H]2[C@H](CN1C(=O)CNc1c(F)cc(F)cc1F)C2(C)C [ML104m]	81

###

- ASSAY METHOD TEXT: in vitro
- TEST PARAMETERS: human
Parameter: CC50. Scope: all listed entries.

MOLECULE	CC50
CNC(=O)C(=O)[C@H](C[C@@H]1CCNC1=O)NC(=O)[C@@H]1[C@@H]2[C@H](CN1C(=O)[C@@H](NC(=O)C13CC(C1)C3)C(C)(C)C)C2(C)C [ML1002m]	> 100 µM
CNC(=O)C(=O)[C@H](C[C@@H]1CCNC1=O)NC(=O)[C@@H]1[C@@H]2[C@H](CN1C(=O)CCc1ccccc1)C2(C)C [ML102m]	> 100 µM
COc1cccc2[nH]c(C(=O)N3C[C@H]4[C@@H]([C@H]3C(=O)N[C@@H](C[C@@H]3CCNC3=O)C(=O)C(N)=O)C4(C)C)cc12 [ML105]	> 100 µM
CC1(C)[C@@H]2[C@@H](C(=O)NC(C[C@@H]3CCNC3=O)C(=O)C(N)=O)N(C(=O)CNc3c(F)cc(F)cc3F)C[C@@H]21 (stereo partly drawn) [ML104]	> 100 µM
CNC(=O)C(=O)[C@H](C[C@@H]1CCNC1=O)NC(=O)[C@@H]1[C@@H]2[C@H](CN1C(=O)CNc1c(F)cc(F)cc1F)C2(C)C [ML104m]	> 100 µM
CCC[C@H](NC(=O)[C@@H]1[C@H]2CCC[C@H]2CN1C(=O)[C@@H](NC(=O)[C@@H](NC(=O)c1cnccn1)C1CCCCC1)C(C)(C)C)C(=O)C(=O)NC1CC1 [Telaprevir, telaprevir, reference compound]	10 to 100 µM

###

Parameter: IC50. Scope: all listed entries.
- TESTED ON: mature SARSCoV2 M^pro (Severe acute respiratory syndrome coronavirus 2, UniProt P0DTD1)
- ASSAY METHOD TEXT: biochemical
- Set-up: species or system SARS-CoV-2
- TEST PARAMETERS: 20 nM SARSCoV2 Mpro, 30 min incubation; read-out: IC50 SARSCov2 Mpro
EXPERIMENTAL READOUT: IC50 (µM)

COMPOUND	UNIT ABBREVIATION	MEASUREMENT
CNC(=O)C(=O)[C@H](C[C@@H]1CCNC1=O)NC(=O)[C@@H]1[C@@H]2[C@H](CN1C(=O)CCc1ccccc1)C2(C)C [ML102m]	µM	0.12
COc1cccc2[nH]c(C(=O)N3C[C@H]4[C@@H]([C@H]3C(=O)N[C@@H](C[C@@H]3CCNC3=O)C(=O)C(N)=O)C4(C)C)cc12	µM	0.02
CC1(C)[C@@H]2[C@@H](C(=O)N[C@@H](C[C@@H]3CCNC3=O)C(=O)C(N)=O)N(C(=O)CCc3ccccc3)C[C@@H]21	µM	0.09
CNC(=O)C(=O)[C@H](C[C@@H]1CCNC1=O)NC(=O)[C@@H]1[C@@H]2[C@H](CN1C(=O)[C@@H](NC(=O)C13CC(C1)C3)C(C)(C)C)C2(C)C [ML1002m]	µM	0.02
CC(C)(C)[C@H](NC(=O)C12CC(C1)C2)C(=O)N1C[C@H]2[C@@H]([C@H]1C(=O)N[C@@H](C[C@@H]1CCNC1=O)C(=O)C(N)=O)C2(C)C	µM	0.02

###

Parameter: Papp A→B. Scope: all listed entries.
- ASSAY METHOD TEXT: in vitro
- TEST PARAMETERS: human, Caco-2
EXPERIMENTAL READOUT: Papp A→B

COMPOUND	EXPERIMENTAL READOUT	MEASUREMENT
CNC(=O)C(=O)[C@H](C[C@@H]1CCNC1=O)NC(=O)[C@@H]1[C@@H]2[C@H](CN1C(=O)CCc1ccccc1)C2(C)C [ML102m]	Papp A→B	0.4 ×10⁻⁶ cm/s
CC(C)(C)CC(=O)N[C@H](C(=O)N1C[C@H]2[C@@H]([C@H]1C(=O)NC(C[C@@H]1CCNC1=O)C(=O)C(N)=O)C2(C)C)C(C)(C)C (stereo partly drawn)	Papp A→B	< 0.2 ×10⁻⁶ cm/s
COc1cccc2[nH]c(C(=O)N3C[C@H]4[C@@H]([C@H]3C(=O)N[C@@H](C[C@@H]3CCNC3=O)C(=O)C(N)=O)C4(C)C)cc12	Papp A→B	< 0.2 ×10⁻⁶ cm/s

###

Parameter: IC50. Scope: all listed entries.
- TESTED ON: HCoV229E Mpro (Human coronavirus 229E)
- Sequence (P0C6X1 2966-3267): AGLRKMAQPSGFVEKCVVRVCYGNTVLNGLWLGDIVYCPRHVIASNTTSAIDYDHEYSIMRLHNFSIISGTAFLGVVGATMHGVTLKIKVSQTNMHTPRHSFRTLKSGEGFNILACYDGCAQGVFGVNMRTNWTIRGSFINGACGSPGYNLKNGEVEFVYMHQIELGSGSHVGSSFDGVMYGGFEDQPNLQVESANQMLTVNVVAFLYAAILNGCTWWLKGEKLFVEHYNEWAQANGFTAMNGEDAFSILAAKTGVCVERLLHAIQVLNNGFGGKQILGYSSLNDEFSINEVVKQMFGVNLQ
- ASSAY METHOD TEXT: biochemical
EXPERIMENTAL READOUT: IC50 (nM)

COMPOUND	MEASUREMENT
CC(C)(C)[C@H](NC(=O)C12CC(C1)C2)C(=O)N1C[C@H]2[C@@H]([C@H]1C(=O)N[C@@H](C[C@@H]1CCNC1=O)C(=O)C(N)=O)C2(C)C	260
CNC(=O)C(=O)[C@H](C[C@@H]1CCNC1=O)NC(=O)[C@@H]1[C@@H]2[C@H](CN1C(=O)CCc1ccccc1)C2(C)C [ML102m]	720
CC1(C)[C@@H]2[C@@H](C(=O)NC(C[C@@H]3CCNC3=O)C(=O)C(N)=O)N(C(=O)CNc3c(F)cc(F)cc3F)C[C@@H]21 (stereo partly drawn)	440
CC1(C)[C@@H]2[C@@H](C(=O)N[C@@H](C[C@@H]3CCNC3=O)C(=O)C(N)=O)N(C(=O)CCc3ccccc3)C[C@@H]21	290
CNC(=O)C(=O)[C@H](C[C@@H]1CCNC1=O)NC(=O)[C@@H]1[C@@H]2[C@H](CN1C(=O)[C@@H](NC(=O)C13CC(C1)C3)C(C)(C)C)C2(C)C [ML1002m]	400
CC(C)(C)NC(=O)N[C@H](C(=O)N1C[C@H]2[C@@H]([C@H]1C(=O)N[C@@H](C[C@@H]1CCNC1=O)C(=O)C(N)=O)C2(C)C)C(C)(C)C	130
CC(C)(C)CC(=O)N[C@H](C(=O)N1C[C@H]2[C@@H]([C@H]1C(=O)NC(C[C@@H]1CCNC1=O)C(=O)C(N)=O)C2(C)C)C(C)(C)C (stereo partly drawn)	500
CNC(=O)C(=O)[C@H](C[C@@H]1CCNC1=O)NC(=O)[C@@H]1[C@@H]2[C@H](CN1C(=O)CNc1c(F)cc(F)cc1F)C2(C)C [ML104m]	230
COc1cccc2[nH]c(C(=O)N3C[C@H]4[C@@H]([C@H]3C(=O)N[C@@H](C[C@@H]3CCNC3=O)C(=O)C(N)=O)C4(C)C)cc12	10

###

- TESTED ON: MERS Mpro (Middle East respiratory syndrome-related coronavirus, UniProt K9N7C7)
- Sequence (K9N7C7 3248-3553 limits assumed): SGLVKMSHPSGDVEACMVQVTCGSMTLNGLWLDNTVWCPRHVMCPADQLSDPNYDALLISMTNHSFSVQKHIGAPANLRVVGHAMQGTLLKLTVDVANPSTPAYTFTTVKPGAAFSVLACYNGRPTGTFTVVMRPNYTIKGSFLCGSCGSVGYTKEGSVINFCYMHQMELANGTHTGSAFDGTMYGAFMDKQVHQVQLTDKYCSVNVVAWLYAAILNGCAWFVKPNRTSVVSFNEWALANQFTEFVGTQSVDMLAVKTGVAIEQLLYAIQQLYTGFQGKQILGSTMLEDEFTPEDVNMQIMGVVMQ
- ASSAY METHOD TEXT: biochemical
- TEST PARAMETERS: read-out: IC50 MERS Mpro

STRUCTURE NOTATION	UNIT ABBREVIATION	IC50
CC(C)(C)NC(=O)N[C@H](C(=O)N1C[C@H]2[C@@H]([C@H]1C(=O)N[C@@H](C[C@@H]1CCNC1=O)C(=O)C(N)=O)C2(C)C)C(C)(C)C	nM	530

###

- TESTED ON: Human Cathepsin B (Homo sapiens, UniProt P07858)
- ASSAY METHOD TEXT: Cathepsin B protease specificity assay (Z-LR-AMC substrate)
- Assay type: biochemical
- TEST PARAMETERS: 0.05 ng/uL Cathepsin B, pH 5.5, 2 mM DTT; read-out: IC50 HCathepsin B

COMPOUND	IC50
CC(C)(C)CC(=O)N[C@H](C(=O)N1C[C@H]2[C@@H]([C@H]1C(=O)NC(C[C@@H]1CCNC1=O)C(=O)C(N)=O)C2(C)C)C(C)(C)C (stereo partly drawn) [ML1001]	42 µM
CC(C)(C)NC(=O)N[C@H](C(=O)N1C[C@H]2[C@@H]([C@H]1C(=O)N[C@@H](C[C@@H]1CCNC1=O)C(=O)C(N)=O)C2(C)C)C(C)(C)C [ML1000]	5.9 µM
CC1(C)[C@@H]2[C@@H](C(=O)NC(C[C@@H]3CCNC3=O)C(=O)C(N)=O)N(C(=O)CNc3c(F)cc(F)cc3F)C[C@@H]21 (stereo partly drawn) [ML104]	17 µM
